Here, each record is paired with measured log10 ID50 data.
# TESTED TARGET: Thymidylate synthase (Mus musculus) (UniProt P07607)
# Sequence (P07607 whole entry, looked up): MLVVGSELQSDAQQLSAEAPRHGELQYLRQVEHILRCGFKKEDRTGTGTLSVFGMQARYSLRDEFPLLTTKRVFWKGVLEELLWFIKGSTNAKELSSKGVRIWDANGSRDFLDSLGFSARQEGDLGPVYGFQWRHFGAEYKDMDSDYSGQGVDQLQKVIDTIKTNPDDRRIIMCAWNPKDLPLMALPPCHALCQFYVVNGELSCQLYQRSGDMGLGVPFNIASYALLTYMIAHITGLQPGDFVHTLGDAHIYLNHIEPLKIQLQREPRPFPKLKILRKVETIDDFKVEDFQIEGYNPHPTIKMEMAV
# TEST DESCRIPTION: The compound was tested for inhibition of thymidylate synthase (TS) in L1210 cells
# Assay type: cell-based
READOUT KIND: log10 ID50 (log10 of the value in µM)

| COMPOUND | log10 ID50 |
| --- | --- |
| O=c1[nH]c(=O)n([C@@H]2O[C@H](CO)[C@@H](O)[C@@H]2F)cc1C(F)F | 1.75 |
| Cc1cn([C@H]2C[C@H](O)[C@@H](CO)O2)c(=O)[nH]c1=O [DOXRIBTIMINE] | 1.88 |
| O=c1[nH]c(=O)n([C@@H]2O[C@H](CO)[C@@H](O)[C@@H]2F)cc1C(F)(F)F | 1.15 |
| O=c1[nH]c(=O)n([C@H]2C[C@H](O)[C@@H](CO)O2)cc1C(F)F | -1.20 |
| O=c1[nH]c(=O)n([C@H]2C[C@H](O)[C@@H](CO)O2)cc1CF | 1.04 |
| O=c1[nH]c(=O)n([C@H]2C[C@H](O)[C@@H](CO)O2)cc1C(F)(F)F [TRIFLURIDINE] | -1.46 |

* * *

# System: Human alphaherpesvirus 2
# TEST DESCRIPTION: Effective dose required for antiherpes activity against HSV-2(G) strain
# Format: functional
# CONDITION LABEL: read-out: ED50 (the source's name)
pEC50: −log10 of the molar value.
Reported pEC50 values follow for various molecules

| MOLECULE | RELATION SIGN | pEC50 |
| --- | --- | --- |
| O=c1[nH]c(=O)n([C@H]2C[C@H](O)[C@@H](CO)O2)cc1C(F)(F)F [TRIFLURIDINE] | = | 5.73 |
| CC(=O)OC[C@H]1O[C@@H](n2cc(CF)c(=O)[nH]c2=O)[C@@H](F)[C@@H]1OC(C)=O | = | 5.28 |
| CC(=O)OC[C@H]1O[C@@H](n2cc(C(F)(F)F)c(=O)[nH]c2=O)[C@@H](F)[C@@H]1OC(C)=O | = | 5.89 |
| O=c1[nH]c(=O)n([C@@H]2O[C@H](CO)[C@@H](O)[C@@H]2F)cc1C(F)(F)F | = | 5.77 |
| CC(=O)OC[C@H]1O[C@@H](n2cc(C(F)F)c(=O)[nH]c2=O)[C@@H](F)[C@@H]1OC(C)=O | = | 5.67 |
| Cc1cn([C@H]2C[C@H](O)[C@@H](CO)O2)c(=O)[nH]c1=O [DOXRIBTIMINE] | < | 3.00 |
| O=c1[nH]c(=O)n([C@@H]2O[C@H](CO)[C@@H](O)[C@@H]2F)cc1CF | = | 6.10 |
| CC(=O)OC[C@H]1O[C@@H](n2cc(C(F)F)c(=O)[nH]c2=O)C[C@@H]1OC(C)=O | = | 4.60 |
| O=c1[nH]c(=O)n([C@@H]2O[C@H](CO)[C@@H](O)[C@@H]2F)cc1CO | = | 5.26 |
| CC(=O)OC[C@H]1O[C@@H](n2cc(C)c(=O)[nH]c2=O)[C@@H](F)[C@@H]1OC(C)=O | = | 5.91 |
| O=c1[nH]c(=O)n([C@@H]2O[C@H](CO)[C@@H](O)[C@@H]2F)cc1C(F)F | = | 5.98 |
| CC(=O)OC[C@H]1O[C@@H](n2cc(C(F)(F)F)c(=O)[nH]c2=O)C[C@@H]1OC(C)=O | = | 4.79 |
| Cc1cn([C@@H]2O[C@H](CO)[C@@H](O)[C@@H]2F)c(=O)[nH]c1=O [5-METHYL-2'-FLUOROARAURACIL] | = | 7.15 |
| O=c1[nH]c(=O)n([C@H]2C[C@H](O)[C@@H](CO)O2)cc1C(F)F | = | 5.93 |
| CC(=O)OC[C@H]1O[C@@H](n2cc(CF)c(=O)[nH]c2=O)C[C@@H]1OC(C)=O | < | 4.00 |
| O=c1[nH]c(=O)n([C@H]2C[C@H](O)[C@@H](CO)O2)cc1CF | < | 4.00 |
